TARGET SYSTEM: human Y4 receptor (human, UniProt P50391 1-375)
Sequence (P50391 whole entry): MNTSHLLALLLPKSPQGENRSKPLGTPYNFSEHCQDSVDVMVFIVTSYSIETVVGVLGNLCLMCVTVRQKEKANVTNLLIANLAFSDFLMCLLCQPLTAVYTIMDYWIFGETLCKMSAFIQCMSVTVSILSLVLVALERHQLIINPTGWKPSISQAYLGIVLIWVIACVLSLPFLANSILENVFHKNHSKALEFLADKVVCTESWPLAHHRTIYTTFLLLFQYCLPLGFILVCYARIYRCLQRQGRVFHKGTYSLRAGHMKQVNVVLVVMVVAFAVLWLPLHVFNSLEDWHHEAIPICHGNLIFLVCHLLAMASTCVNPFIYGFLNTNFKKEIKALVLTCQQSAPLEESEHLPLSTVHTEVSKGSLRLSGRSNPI
RUN DESCRIPTION: 125I-PP displacement
READOUT LABEL: IC50 (nM)
Answer format: numeric, nM implied, no suffix.

Observe how each entry below is paired with its result.
BINDER: PAPLEPTYPGDNATPEQMAKYAADLRRYINKLTRPRY [4057229]
IC50 (nM): 0.143
--
BINDER: PAPLEPTYPGDNATPEEMAKYAAELRRYINKLTRPRY [4057446]
IC50 (nM): 0.109
--
BINDER: PAPLEPFYPGDNATPEQMAKYAADLRRYINKLTRPRY [4057233]
IC50 (nM): 0.13
--
BINDER: GAPLEPVYPGDNATPEQMARYAADLRRYINKLTRPRY [4057336]
IC50 (nM): 0.09
--
BINDER: PKPLEPEYPGDDATPQQMARYAAELRRYINKLTRPRY [4057279]
IC50 (nM): 0.08
--
BINDER: PAPLEPDYPGDDATPQQMAKYAAELRRYINKLTRPRY [4057443]
IC50 (nM): 0.078
--
BINDER: PAPLEPVYPGDNATPEQTAKYAADLRRYINKLTRPRY [4057148]
IC50 (nM): 0.069
--
BINDER: HAPLEPEYPGDDATPQQMARYAAELRRYINKLTRPRY [4057137]
IC50 (nM): 0.092

Query: Record request: IC50 value, item PAPLEPVYPGDNATPEQMAKYAADLRRYINKLTRPRF [4057235]
Reply: 0.059

Query: Record request: IC50 value, item PAPLEPSYPGDDATPQQMAKYAAELRRYINKLTRPRY [4057442]
Reply: 0.101

Query: Record request: IC50 value, item APLEPVYPGDNATPEQMAKYYSELRRYINKLTRPRY [4057270]
Reply: 0.085
